Test system: HCT-15 colon
Assay: NCI tumour cell line growth inhibition, 48 h
Quantity Measured: TGI

Guide cases for TGI, answers given:
Compound	Measurement
COC(=O)C(CNC(=O)/C=C/c1ccc(OC)c(OC)c1)NC(=O)/C=C/c1ccc(OC)c(OC)c1 (stereo unspecified)	> 100 µM
CCN1CCN(CCNc2nccc(-c3c(-c4ccc(F)c(O)c4)nc4occn34)n2)S1(=O)=O	> 100 µM
COc1cc(-n2ccnc2-c2ccc3ccccc3c2)cc(OC)c1OC	> 48.6 µM
Cn1c(-c2ccc(C=O)o2)ccc1-c1ccc(C=O)o1	> 100 µM
S=P1(Sc2ccccc2)Oc2ccc3ccccc3c2-c2c(ccc3ccccc23)O1	> 100 µM

Entry "CCOC(=O)C1(C(=O)OCC)C(C(C)(C)C)=C(C)c2ccccc21" , tested on HCT-15 colon, has a reported TGI of 28.7 µM

Entry "CCCCN(CC)C(=O)C(=O)Cc1nc2ccc(C(=O)c3ccccc3)cc2[nH]c1=O" , tested on HCT-15 colon, has a reported TGI of > 100 µM

Entry Cc1ccc(NCC2(/N=C/c3ccccc3)OC(CO)C(O)C2O)cc1 (stereo unspecified) , tested on HCT-15 colon, has a reported TGI of > 100 µM

Entry "O=c1[nH]c(NCc2cccnc2)nc2nc[nH]c12" , tested on HCT-15 colon, has a reported TGI of > 100 µM

Entry "Cc1ncn(-c2ccccc2O)c1C" , tested on HCT-15 colon, has a reported TGI of > 100 µM

Entry "NCC(=O)Nc1ccccc1" , tested on HCT-15 colon, has a reported TGI of > 100 µM

====

Tested on: IGROV1 ovarian
Test: NCI tumour cell line growth inhibition, 48 h
Quantity Measured: TGI

Guide cases for TGI, answers given:
Compound	TGI
CC1(C)N=C(N)N=C(N)N1c1ccc(CNC(=O)Nc2ccc(S(=O)(=O)F)c(Cl)c2)c(Cl)c1	> 100 µM
CC(=O)OCc1c(O)c2c([nH]c1=O)CCc1ccccc1-2	> 350 µM
Cc1cc(OCc2nnc3n2S(=O)(=O)c2ccccc2N3C)ccc1Cl	> 100 µM
COC(=O)c1ccc(NCc2cc(OC)ccc2OC)cc1	> 100 µM
COC(=O)/C=C1/SC(=Nc2cccc(Cl)c2)N(CCc2c[nH]c3ccc(O)cc23)C1=O	4.35 µM
O=C1c2c(c(=O)[nH]c3ccccc23)[C@H](c2ccccc2)[C@@H]2CCCN12	15.6 µM
COc1cc(C2C=C(c3ccccc3)Oc3cc4c(cc32)OCO4)cc(OC)c1OC (stereo not given)	> 100 µM
COc1ccc(/[N+]([O-])=C/c2ccc(OC(=S)S)c(OC)c2)cc1	> 100 µM
COc1ccc2c(c1)c1c3c(ccc4ncn2c43)N(CCO)CCN=1	5.53 µM
CC(C)(C)C1=C(Br)C(F)(C(C)(C)C)OP1(=O)c1ccccc1 (stereo not given)	29.7 µM

// recorded TGI for Cc1ccc(OCC2CO2)c(Br)c1 (stereo not given) : 37.1 µM

// recorded TGI for CC(=O)OC12C(C)=C(C)C(=O)N1c1ccccc1N2C(C)=O (stereo not given) : > 100 µM

// recorded TGI for "S=P1(Sc2ccccc2)Oc2ccc3ccccc3c2-c2c(ccc3ccccc23)O1" : > 100 µM

====

System: MDA-MB-231 breast
Experiment: NCI tumour cell line growth inhibition, 48 h
Quantity Measured: TGI (µM)
Express your answer in µM, writing the number without its unit.

Guide cases for TGI, answers given:
Smiles Text	Quantity Measured	Units Of Measure	Measurement
COc1cnc2c(c1)C(=O)c1c-2n(CCCN2CCCC2)c(=O)c2cc([N+](=O)[O-])ccc12	TGI	µM	2.65
COc1ccc(Nc2nc(NCCNc3ccnc4cc(Cl)ccc34)nc(N3CCOCC3)n2)cc1	TGI	µM	10.2
COc1cc(-n2ccnc2-c2ccc3ccccc3c2)cc(OC)c1OC	TGI	µM	44.1

# evaluate next
// recorded TGI for "COc1ccc2c(c1)c(-c1nc(-c3cn(C)c4ccncc34)cs1)cn2C" : 3.53
